B1: mRNA-splicing (parent)
chain: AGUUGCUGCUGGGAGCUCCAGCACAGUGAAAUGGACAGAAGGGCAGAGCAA

variants of: B1; assay: exon inclusion enrichment index; higher = more inclusion; WT1 exon 5 minigene, HEK293
This section presents variants with their documented exon inclusion enrichment index values.
Reply with the value as a number alone.

Here is how some variants turned out for exon inclusion enrichment index.
[[record]]
mutation_name = "G5A C6G U7G C9A A25U G26U"
test_value = 0.000854

[[record]]
mutation_name = "G5A C6U U7A G8U C9A G42A G43U"
test_value = 1.03

[[record]]
mutation_name = "G5A C6G U7G C9A A35C C36U"
test_value = 0.000826


Find the recorded exon inclusion enrichment index belonging to C36G A37U and report it. 0.0724

Give the measured exon inclusion enrichment index of G5C C6U G8C C9U U10C A20G G21A . 2.38

Can you look up the measured exon inclusion enrichment index of G5A U7C G8A U10C A47C G48C for me? 2.06

Reported exon inclusion enrichment index, variant G5C C6G U7C U10C G28U : ____ 1.05

Could you tell me which exon inclusion enrichment index is on file for G5C C6A U7C G8A U10A G12U G13A ? 0.0173

Fill in the blank: the reported exon inclusion enrichment index of G5C C6U U7A U10C is ____. 0.444

Consider the variant shown here: G41U G42C What is its recorded exon inclusion enrichment index? 0.49

Tell me the measured exon inclusion enrichment index of G5A C6U U7A G8U C9A U17C C18A , please. 0.0363

For the variant G5C C6U G8C C9U U10C C16A U17A , what exon inclusion enrichment index is on record? 1.38

GET /values?readout=exon inclusion enrichment index&item= G11U G12C 1.86

Recorded exon inclusion enrichment index of G5C C6A U7C G8A U10A G13U , please. 0.00463

So what does the record say about exon inclusion enrichment index for G5C C6G U7C U10C A23U C24U ? 0.822

Any idea what exon inclusion enrichment index was measured for G5C C6U G8C C9U U10C G34A ? 1.17

Any idea what exon inclusion enrichment index was measured for G5C C6G U7G G8A U10A ? 0.218

// exon inclusion enrichment index lookup, key: G5C C6A U7C G8A U10A G15C C16A 0.0594

Would you mind telling me what exon inclusion enrichment index value was observed for G5C C6G U7C U10C G12U ? 1.53

I would be grateful if you could share the reported exon inclusion enrichment index for G5C C6A U7C G8A U10A A23C C24G . 0.664

Value lookup for exon inclusion enrichment index; key = C6A U7C C9A U10A G11A 1.98

Which exon inclusion enrichment index value belongs to G5A C6G U7G C9A A25U G26C ? 0.00304

Quick one: exon inclusion enrichment index of G5A C6U U7A G8U C9A A39U A40C ? 0.142

So what does the record say about exon inclusion enrichment index for G5A C6G U7G C9A G41A ? 0.0013

All values here come from the RNAGym collection of RNA variant scans (doi:10.1101/gr.219683.116).
